Numbers sourced from patent US20250313612A1.

# Experimental System: T1, RSV F ectodomain stabilized in the postfusion conformation (F ΔFP), subtype B (Respiratory syncytial virus subtype B, UniProt P13843 26-109; P13843 147-524)
# T1 construct: extracellular domain; trimer; also called Postfusion subtype B
# Experiment: BLI, IgG on AHQ sensors, 100 nM antigen
Measure Name: Kd (nM)

1) ADI-14530 (antibody, V domains shown, IgG; also called Antibody Number 90) VH: QVQLVQSGAEVKKPGSSVKVSCKVVGGSFSNYGIGWVRQAPGQGPEWMGGIIPAFKTAKYAKKFQDRVTITADESSSTAYMEVRGLRPDDTALYYCARPEGDFGDLKWVRSPFDYWGQGTLVTVSS VL: ETTLTQSPATLSVSPGERVTLSCRASQDVSINLAWYQQKPGQAPRLLIYGASTRATDVPARFSGSGSGTDFTLTISSLQSEDFAFYYCQEYNDWPPQLTFGPGTKVEIK : 37.6
2) ADI-14559 (antibody, V domains shown, IgG; also called Antibody Number 119) VH: EVQLLESGGGLVKPGGSLRLSCAASGFIFTNAWMSWVRQAPGKGLEWVGRIKRKTETGTTDYAPPVKGRFTISRDDSRSTLYLQMNSLKTEDTAVYYCTTGPPYQYYDSTGYSVVDYWGQGTLVTVSS VL: SYELTQPPSASGTPGQRVTISCSGSSSNIGSNIGINYVYWYQQLPGTAPKLLIYSTNQRPSGVPDRFSGSQSGTSASLAISGLRSEDEADYYCAAWDDSLSGPVFGGGTKLTVL : 0.129
3) ADI-14532 (antibody, V domains shown, IgG; also called Antibody Number 92) VH: EVQLVESGGGLVKPGGSLRLSCAASGFIFRNAWMSWVRQAPGKGLEWVGRIKRTSEGGSVDYATPVQGRFSISRDDSRKTLYLQMNSLETDDTAVYYCSTGPPYSYFDSSGYSVVDYWGLGTLVTVSS VL: SYELTQPPSASGTPGQRVTISCSASSSNIGDNYFYWYQQLPGKAPTLLMYGSDQRSSGVPDRFSGSQSGTSASLAISGLRSEDEADYYCAAWDDSLSGPVFGGGTQLTVL : 0.136
